Tested on: M14
Experiment: NCI tumour cell line growth inhibition, 48 h
The source made the active and inactive calls. Rule as the data show it: active = GI50 up to about 1.1 µM and inactive = higher.
# valid calls are True = active, False = inactive; nothing else

CC(C)C1=CC2=C(C(=O)C1=O)C13CCCC(C)(C)C1CC2OC3=O (stereo not given) ... False
C=CCOn1c(C=C)nc2ccc(C)cc21 ... False
Cc1c(Cl)c(S(N)(=O)=O)cc(S(N)(=O)=O)c1NC(=O)c1ccc(Cl)cc1 ... False

Query string: Any idea what this test logged for O=C(CC/C(C/C(=N/O)c1ccc(F)cc1)=N/O)N(Cc1ccccc1)Cc1ccccc1 ?
Result string: False

Query string: How did this test come out for CCOc1cc(NC(C)=O)ccc1C(=O)NN1C(=O)C(Cl)C1c1ccc(O)c(OC)c1 (stereo not given) ?
Result string: False
